Target under test: T1, Epidermal growth factor receptor 2 (HER2 or ErbB-2) on HER2+ SKOV3 cells (human, UniProt P04626 23-1255)
T1 construct: whole, on cells; Only claim 72 calls it 'human epidermal growth factor receptor 2 (HER2)'
Assay overview: split-luciferase complementation on HER2+ SKOV3 cells (lysates, washed); paired with β9-LPert
Experimental readout: Signal-to-Background (Ratio of Relative Luminescence Units) (ratio)
All answers are understood in ratio, so give the number only.

The binder identified as β10*-L73J (Fab, V domains shown, Fab fusion expressed in E. coli, used as lysate; also called 73J Fab with β10* at the N-terminus of the light chain) VH: EVQLVESGGGLVQPGGSLRLSCAASGFNLYSSYIHWVRQAPGKGLEWVASIYPYSSYTSYADSVKGRFTISADTSKNTAYLQMNSLRAEDTAVYYCARYYGFAMDYWGQGTLVTVSS VL: DIQMTQSPSSLSASVGDRVTITCRASQSVSSAVAWYQQKPGKAPKLLIYSASSLYSGVPSRFSGSRSGTDFTLTISSLQPEDFATYYCQQGYYYPFTFGQGTKVEIKR registered its Signal-to-Background (Ratio of Relative Luminescence Units) at 4

Entry G3-β10* (designed binder, DARPin fusion expressed in E. coli; Used as lysate in the screen and later IMAC-purified; also called DARPin G3 with C-terminal β10*) MRGSHHHHHHGSDLGKKLLEAARAGQDDEVRILMANGADVNAKDEYGLTPLYLATAHGHLEIVEVLLKNGADVNAVDAIGFTPLHLAAFIGHLEIAEVLLKHGADVNAQDKFGKTAFDISIGNGNEDLAEILQKLNGGGSGGGGSGGGGSGVSGWRLFKKIS — recorded Signal-to-Background (Ratio of Relative Luminescence Units) = 353

get_value(item= 73JH-β10* (Fab, V domains shown, Fab fusion expressed in E. coli, used as lysate; also called 73J Fab with β10* at the C-terminus of the heavy chain) VH: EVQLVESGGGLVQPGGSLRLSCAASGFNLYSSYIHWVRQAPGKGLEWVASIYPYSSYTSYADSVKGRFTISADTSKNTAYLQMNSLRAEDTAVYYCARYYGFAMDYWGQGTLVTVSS VL: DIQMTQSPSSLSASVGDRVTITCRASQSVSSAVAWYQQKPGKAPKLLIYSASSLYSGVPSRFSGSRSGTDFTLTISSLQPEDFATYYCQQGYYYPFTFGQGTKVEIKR , readout=Signal-to-Background (Ratio of Relative Luminescence Units)) returns 23
